Ref: patent US20230101266A1

TGT: T1, recombinant extracellular domain of human TROP2 (human, UniProt P09758 27-274)
T1 construct: extracellular domain; Commercial protein (Acrobiosystem), used as the analyte in SPR; also called Trophoblast antigen 2; GA733-1
T1 sequence (looked up): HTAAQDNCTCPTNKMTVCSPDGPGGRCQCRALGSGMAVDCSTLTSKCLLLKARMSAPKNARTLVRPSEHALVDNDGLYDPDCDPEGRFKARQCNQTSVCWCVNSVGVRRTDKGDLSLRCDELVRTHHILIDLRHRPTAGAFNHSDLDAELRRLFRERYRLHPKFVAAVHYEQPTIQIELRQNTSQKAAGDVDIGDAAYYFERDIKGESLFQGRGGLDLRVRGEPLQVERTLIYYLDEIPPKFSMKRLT
PROTOCOL DESCRIPTION: SPR, Biacore 8K, antibody captured on Protein A chip, TROP2 ECD as analyte, 25 C, 1:1 model
QUANTITY MEASURED: kon (M⁻¹ s⁻¹)

# BINDER, REPORTED MEASUREMENT
measured = [
    ("Ab0062 (antibody, human IgG1, kappa, V domains shown, Humanized IgG; also called Ab062; Ab0001-huV5-VL / Ab0001-huV6-VH) VH: QVQLVQSGAEVKKPGSSVKVSCKASGYRFTDYVINWVRQAPGQGLEWMGQIYPGSDAFHYNQKFQGRATLTADKSTNTAYMELSSLRSEDTAVYYCARFFEGLAYWGQGTLVTVSS VL: DIQMTQSPSSLSASVGDRVTITCKASQGINNYLSWYQQKPGKAPKSLIYRANRLVDGVPSRFSGSGSGTDFTLTISSLQPEDFATYYCLQYDEFPLTFGGGTKVEIKR", 889000),
    ("Ab0061 (antibody, human IgG1, kappa, V domains shown, Humanized IgG; also called Ab0001-huV5-VL / Ab0001-huV5-VH) VH: QVQLVQSGAEVKKPGSSVKVSCKASGYRFTDYVINWVRQAPGQGLEWMGQIYPGSDTFHYNQKFQGRATLTADKSTNTAYMELSSLRSEDTAVYYCARFFEGLAYWGQGTLVTVSS VL: DIQMTQSPSSLSASVGDRVTITCKASQGINNYLSWYQQKPGKAPKSLIYRANRLVDGVPSRFSGSGSGTDFTLTISSLQPEDFATYYCLQYDEFPLTFGGGTKVEIKR", 874000),
    ("Ab0054 (antibody, human IgG1, kappa, V domains shown, Humanized IgG; also called Ab0001-huV5-VL / Ab0001-huV4-VH) VH: QVQLVQSGAEVKKPGSSVKVSCKASGYRFTDYVINWVRQAPGQGLEWMGQIYPGSDSFHYNQKFQGRATLTADKSTNTAYMELSSLRSEDTAVYYCARFFEGLAYWGQGTLVTVSS VL: DIQMTQSPSSLSASVGDRVTITCKASQGINNYLSWYQQKPGKAPKSLIYRANRLVDGVPSRFSGSGSGTDFTLTISSLQPEDFATYYCLQYDEFPLTFGGGTKVEIKR", 975000),
    ("Ab0053 (antibody, human IgG1, kappa, V domains shown, Humanized IgG; also called Ab0001-huV4-VL / Ab0001-huV4-VH) VH: QVQLVQSGAEVKKPGSSVKVSCKASGYRFTDYVINWVRQAPGQGLEWMGQIYPGSDSFHYNQKFQGRATLTADKSTNTAYMELSSLRSEDTAVYYCARFFEGLAYWGQGTLVTVSS VL: DIQMTQSPSSLSASVGDRVTITCKASQGINNYLSWYQQKPGKAPKSLIYRANRLVDGVPSRFSGSGSGTDYTLTISSLQPEDFATYYCLQYDEFPLTFGGGTKVEIKR", "1.01e+06"),
    ("Ab0063 (antibody, human IgG1, kappa, V domains shown, Humanized IgG; also called Ab0001-huV8-VL / Ab0001-huV4-VH) VH: QVQLVQSGAEVKKPGSSVKVSCKASGYRFTDYVINWVRQAPGQGLEWMGQIYPGSDSFHYNQKFQGRATLTADKSTNTAYMELSSLRSEDTAVYYCARFFEGLAYWGQGTLVTVSS VL: DIQMTQSPSSLSASVGDRVTITCKASQGINNYLSWYQQKPGKAPKSLIYRANRLVSGVPSRFSGSGSGTDFTLTISSLQPEDFATYYCLQYDEFPLTFGGGTKVEIKR", 862000),
    ("Ab0064 (antibody, human IgG1, kappa, V domains shown, Humanized IgG; also called Ab0001-huV8-VL / Ab0001-huV5-VH) VH: QVQLVQSGAEVKKPGSSVKVSCKASGYRFTDYVINWVRQAPGQGLEWMGQIYPGSDTFHYNQKFQGRATLTADKSTNTAYMELSSLRSEDTAVYYCARFFEGLAYWGQGTLVTVSS VL: DIQMTQSPSSLSASVGDRVTITCKASQGINNYLSWYQQKPGKAPKSLIYRANRLVSGVPSRFSGSGSGTDFTLTISSLQPEDFATYYCLQYDEFPLTFGGGTKVEIKR", 722000),
    ("Ab0052 (antibody, human IgG1, kappa, V domains shown, Humanized IgG; also called Ab0001-huV3-VL / Ab0001-huV4-VH) VH: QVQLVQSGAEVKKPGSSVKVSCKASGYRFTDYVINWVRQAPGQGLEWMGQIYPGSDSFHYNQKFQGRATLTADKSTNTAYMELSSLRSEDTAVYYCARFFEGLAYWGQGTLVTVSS VL: DIQMTQSPSSLSASVGDRVTITCKASQGINNYLSWYQQKPGKAPKSLIYRANRLVDGVPSRFSGSGSGQDYTLTISSLQPEDFATYYCLQYDEFPLTFGGGTKVEIKR", "1.03e+06"),
]
